- Tested on: P. falciparum W2
- Test Method Notes: Malaria SYBR Green Fluorescence Assay, W2 strain
- Type: cell-based, Plasmodium falciparum
- Conditions Used: SYBR Green Assay
Experimental Endpoint: W2 (ng/mL)
Respond with the bare value in ng/mL.

Value of W2 reported for the compound CC(C)(N)CNc1nc(-c2cccc(C(F)(F)F)c2)nc(C(Cl)(Cl)Cl)n1 [Compound 214] is 11

Value of W2 reported for the compound COc1cccc(-c2nc(NCCC3CCCN3C)nc(C(Cl)(Cl)Cl)n2)c1 (stereo not shown) [Cmpd 236] is 50

Value of W2 reported for the compound COc1ccc(Cc2nc(NCCN3CCCC3C)nc(C(Cl)(Cl)Cl)n2)cc1 (stereo not shown) [Cmpd 89] is 718

Value of W2 reported for the compound NC1(CNc2nc(-c3cccc(C(F)(F)F)c3)nc(C(Cl)(Cl)Cl)n2)CCCCC1 [Compound 663] is 583

Value of W2 reported for the compound ClC(Cl)(Cl)c1nc(Nc2ccncc2)nc(-c2ccc(N3CCCC3)cc2)n1 [Compound 744] is 188

Value of W2 reported for the compound CN1CCCN(c2nc(-c3ccc(Cl)cc3)nc(C(Cl)(Cl)Cl)n2)CC1 [Cmpd 287] is 60

Value of W2 reported for the compound CCN1CCC(CNc2nc(Cc3ccccc3OC)nc(C(Cl)(Cl)Cl)n2)CC1 [Cmpd 293] is 13
